# measurement-protocol: NCI Yeast Anticancer Drug Screen. Data for the mec2-1 strain (AID 157)
# conditions: S. cerevisiae mec2-1 strain, at 50.0 µM
Compounds without any hit were thinned out: in the full panel of roughly 79,000, 15% have a hit. Activity calls are given as the source filed them. Cut-off read from the data, not from the text of the source: active = growth inhibition above about 70%; inactive = the rest.
The categories you may choose from are yes for active, no for inactive

{"molecule": "CC1(C)CNC(=O)C2(C=NC(C)(C)CNC(=O)C3(C=N1)CCCO3)CCCO2 (stereo unspecified)", "qualitative-label": "no"}
{"molecule": "COc1ccc(C(=O)CC(C#N)c2ccccc2Cl)cc1 (stereo unspecified)", "qualitative-label": "no"}
{"molecule": "CCCCCCCCCCCCCC(=O)OCC(=O)c1ccc(-c2ccccc2)cc1", "qualitative-label": "no"}
{"molecule": "CCCCCC/C(C)=N\\NC(N)=O", "qualitative-label": "no"}
{"molecule": "CCCCOC(=O)C(C)OP(=O)(OC(C)C(=O)OCCCC)OC(C)C(=O)OCCCC (stereo unspecified)", "qualitative-label": "no"}

Query: Can you look up the reported call for CC(C)(C)NCC(O)c1ccc(O)c(CO)n1 (stereo unspecified) for me?
Reply: no

Query: Can you look up the reported call for "Cc1cc(Cl)ccc1Nc1nc2c(s1)C(=O)c1ccccc1C2=O" for me?
Reply: yes

Query: Can you look up the reported call for "O=P(O)(O)c1ccccc1Br" for me?
Reply: no

Query: Can you look up the reported call for "Cc1ccc(N=Cc2cc(Cl)cc(Cl)c2OC(=O)c2ccccc2)cc1C" for me?
Reply: yes

Query: Can you look up the reported call for "O=C(OCc1c(-c2ccccc2)nn(-c2ccccc2)c1COC(=O)Oc1ccccc1)Oc1ccccc1" for me?
Reply: no

Query: Can you look up the reported call for "C[N+]1(CC(O)C[N+]2(C)CCCCCC2)CCCCCC1" for me?
Reply: no

====

# measurement-protocol: NCI Yeast Anticancer Drug Screen. Data for the sgs1 mgt1 strain (AID 161);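 note: 0% = growth of cultures given vehicle only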
# conditions: S. cerevisiae sgs1 mgt1 strain, at 50.0 µM, active compounds read high
The panel holds about 79,000 compounds, 15% with a hit somewhere; the sample as a whole holds those more often.
property-measured: growth inhibition (%)
// return numeric value only (unit: %, not printed)

Record excerpt, results attached:
{"molecule": "Oc1ccccc1C=Nc1ccccc1N=Cc1ccccc1O.[Zn]", "property-measured": "growth inhibition", "scale-unit": "%", "value-reported": -3.45}
{"molecule": "CC(=O)c1cc(C)c(O)c(C)c1", "property-measured": "growth inhibition", "scale-unit": "%", "value-reported": 0.05}
{"molecule": "O=C1NCCCC1O (stereo not drawn)", "property-measured": "growth inhibition", "scale-unit": "%", "value-reported": 8}
{"molecule": "CCn1cnc2c(=O)n(C)c(=O)n(C)c21", "property-measured": "growth inhibition", "scale-unit": "%", "value-reported": 4}
{"molecule": "CCCC=Nc1ccccc1", "property-measured": "growth inhibition", "scale-unit": "%", "value-reported": 14.5}

Query: Give the measured growth inhibition of CC1NC(=O)CC(c2ccccc2)N(N=O)C1c1ccccc1 (stereo not drawn) .
Reply: -4.1

Query: Give the measured growth inhibition of "CC(=O)N(c1ccc(F)c(F)c1)c1ccc(F)c(F)c1" .
Reply: -0.9

====

# measurement-protocol: NCI Yeast Anticancer Drug Screen. Data for the rad50 strain (AID 155);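 note: 0% = growth of vehicle-only cultures of the same strain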
# conditions: S. cerevisiae rad50 strain growth inhibition; at 50.0 µM; active compounds read high
About 79,000 compounds went through this panel and 15% of them were active in at least one assay; those are over-represented in the sample as a whole.
The entries below come with measured growth inhibition values attached.
// return numeric value only (unit: %, not printed)

{"compound": "NC(=O)N/N=C/C(/C=N/NC(N)=O)[N+](=O)[O-]", "scale-unit": "%", "growth inhibition": -3.8}

Query: Give the measured growth inhibition of "Nc1on(C(=O)c2ccccc2)c(=O)c1Cc1ccccc1" .
Reply: -19.2

Query: Give the measured growth inhibition of "O=[N+]([O-])c1cnc(N(CCO)CCO)s1" .
Reply: 30.4

Query: Give the measured growth inhibition of "Cc1nc2cncnc2n(CCN2CCOCC2)c1=O" .
Reply: 15.1

Query: Give the measured growth inhibition of "CCN(CC)CC(C)(C)C(=O)/C=C/c1ccc(C)cc1" .
Reply: 39.5

Query: Give the measured growth inhibition of "CC(C)=CCc1c(C)c(O)c(C)c(C)c1O" .
Reply: 7.15

Query: Give the measured growth inhibition of "CC(=O)c1cc2c(cc1C)C(C)(C)CCC2" .
Reply: 8.45

Query: Give the measured growth inhibition of "CCCCCCCc1cc(OC(=O)c2c(C)cc(OC)cc2O)cc(O)c1C(=O)O" .
Reply: 13.4

Query: Give the measured growth inhibition of "O=C1COCCO1" .
Reply: 2.45

Query: Give the measured growth inhibition of "O=C(/C(=C\c1ccccc1)c1ccccc1)c1ccccc1" .
Reply: 25.1

Query: Give the measured growth inhibition of "O=C(O)/C(=C\c1ccccc1Cl)S(=O)(=O)c1ccccc1" .
Reply: -25.5

Query: Give the measured growth inhibition of CCCCN(CCCC)C1(c2ccccc2)OC(c2ccccc2)=CC1=O (configuration not stated) .
Reply: 1.45

====

# measurement-protocol: NCI Yeast Anticancer Drug Screen. Data for the sgs1 mgt1 strain (AID 161);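 note: 0% = growth of cultures given vehicle only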
# conditions: S. cerevisiae sgs1 mgt1 strain, at 50.0 µM, active compounds read high
Compounds without any hit were thinned out: in the full panel of roughly 79,000, 15% have a hit.
property-measured: growth inhibition (%)
// return numeric value only (unit: %, not printed)

Record excerpt, results attached:
{"compound": "O=C(CC12C3C4C1C1C2C3C41CC(=O)NO)NO (configuration not stated)", "growth inhibition, %": -29.2}
{"compound": "COC(=O)/C(=C/C=C/c1ccccc1)N=[N+]=[N-]", "growth inhibition, %": -12}
{"compound": "C=CCN1C2Cc3cc(OC)c(OC)cc3C1Cc1cc(OC)c(OC)cc12", "growth inhibition, %": -23.6}

Query: Give the measured growth inhibition of "O=C(N/N=C/c1ccc(Cl)cc1Cl)c1ccccc1SSc1ccccc1C(=O)N/N=C/c1ccc(Cl)cc1Cl" .
Reply: -5.45

Query: Give the measured growth inhibition of "CCCCn1c2c(c3ccccc3c1=O)C(=O)c1ccccc1-2" .
Reply: -4.8

Query: Give the measured growth inhibition of OC1c2ccccc2OC2(N3CCCC3)CCCCC12 (configuration not stated) .
Reply: -13.2

====

The entries below come with measured growth inhibition values attached.
# measurement-protocol: NCI Yeast Anticancer Drug Screen. Data for the bub3 strain (AID 167)
# conditions: S. cerevisiae bub3 mutant strain, at 50.0 µM, active compounds read high
This is part of a sample that, as a whole, favours compounds with a hit. Of some 79,000 tested, about 15% had one in any assay. Active and inactive are the calls of the source. Cut-off read from the data, not from the text of the source: active = growth inhibition above about 70%; inactive = the rest.

Record excerpt, results attached:
{"compound": "Nc1nc(F)nc2c1ncn2C1OC(CO)C(O)C1O (stereo not given)", "property-measured": "growth inhibition", "value-reported": "2.15% (inactive)"}
{"compound": "CCOC(=O)c1cc2c(nc1N)C(=O)CCCC2", "property-measured": "growth inhibition", "value-reported": "-24.6% (inactive)"}

Query: Give the measured growth inhibition of "C/C=C/c1nc2c(c(=O)n(C)c(=O)n2C)n1C" .
Reply: 0.95% (inactive)

Query: Give the measured growth inhibition of CN1C=C([N+](=O)[O-])C(N2CCOCC2)C1N1CCOCC1 (stereo not given) .
Reply: -26.6% (inactive)

Query: Give the measured growth inhibition of CC(C)C(C(N)=O)C(C)(C)C (stereo not given) .
Reply: -7.5% (inactive)

Query: Give the measured growth inhibition of "O=C(O)c1cc(=O)c2cc3c(cc2o1)OCc1ccccc1-3" .
Reply: -6.5% (inactive)

Query: Give the measured growth inhibition of "O=C(O)CS(=O)(=O)CC(=O)O" .
Reply: -23.4% (inactive)

====

# measurement-protocol: NCI Yeast Anticancer Drug Screen. Data for the rad50 strain (AID 155);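 note: 0% = growth of vehicle-only cultures of the same strain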
# conditions: S. cerevisiae rad50 strain growth inhibition; at 50.0 µM
Compounds without any hit were thinned out: in the full panel of roughly 79,000, 15% have a hit. Calls of active or inactive are those of the source. No stated cut-off is given here; in the data, active means growth inhibition above about 70%; inactive means the rest. Where a SMILES comes first, the peptide text is derived from it. [ ]: non-standard residue; d: D form. ξ: configuration not given here. ξF = NC(Cc1ccccc1)C(=O)O
The categories you may choose from are active, inactive

A selection of reference data follows.
{"compound": "O=C(O)C(Cc1ccsc1)C(=O)O", "qualitative-label": "inactive"}
{"compound": "NC1=Nc2ccccc2Sc2nncn21", "qualitative-label": "inactive"}
{"compound": "CCOC(=O)c1ccc(NC(=O)Nc2ccc(F)c([N+](=O)[O-])c2)cc1", "qualitative-label": "inactive"}
{"compound": "CC(O)C(N=Cc1nc(-c2ccccc2)oc1O)C(=O)O (stereo unspecified)", "qualitative-label": "inactive"}

Query: Can you look up the reported call for "O=C(OC1CCCCC1)C(=O)OC1CCCCC1" for me?
Reply: inactive

Query: Can you look up the reported call for "O=[N+]([O-])c1ccc(N/N=C(/c2ccc(Cl)cc2)c2ccccc2Cl)c([N+](=O)[O-])c1" for me?
Reply: inactive

Query: Can you look up the reported call for "Cn1cnc([N+](=O)[O-])c1Sc1ccccc1N" for me?
Reply: inactive

Query: Can you look up the reported call for "CCN(CC)C(=O)c1ccc[n+](CCC(N)=O)c1" for me?
Reply: inactive

Query: Can you look up the reported call for "Cc1[nH]c(=O)[nH]c(=O)c1N" for me?
Reply: inactive

Query: Can you look up the reported call for "O=C1NCCc2c1sc1ccccc21" for me?
Reply: inactive

Query: Can you look up the reported call for "COc1cc(C(=O)C[n+]2ccccc2)ccc1O" for me?
Reply: active

Query: Can you look up the reported call for NC(Cc1ccccc1)C(=O)NCC(=O)O (stereo unspecified) (H-[ξF]-Gly-OH) for me?
Reply: inactive

Query: Can you look up the reported call for "O=C(O)c1cccc(Br)c1[N+](=O)[O-]" for me?
Reply: inactive

Query: Can you look up the reported call for "O=C(CCN1C(=O)c2ccccc2C1=O)NCS(=O)(=O)O" for me?
Reply: inactive

Query: Can you look up the reported call for CCSCC1OC(n2cnc3c(=S)nc(N)[nH]c32)C(O)C1O (stereo unspecified) for me?
Reply: inactive

Query: Can you look up the reported call for Cc1cn(C2CC3OP(=O)(OCc4ccccc4)OCC3O2)c(=O)[nH]c1=O (stereo unspecified) for me?
Reply: inactive

Query: Can you look up the reported call for "COc1cc(Cc2c(OC)c(OC)cc(C)c2C(=O)O)cc(OC)c1" for me?
Reply: inactive

Query: Can you look up the reported call for "Cc1cc(CC#N)c(CC#N)cc1C" for me?
Reply: inactive

Source listed as PubChem BioAssay (NCI).
